Measured half-life at 5000 ng/mL values are reported for all entries that follow.
Experiment: Plasma Stability Assay (LC-MS)
Type: in vitro ADME
Conditions: male, Sprague-Dawley, rat
Where a SMILES comes first, the peptide text is derived from it. [ ]: non-standard residue; d: D form. pGlu = O=C1CC[C@@H](C(=O)O)N1; dNle = CCCC[C@@H](N)C(=O)O; Aib = CC(C)(N)C(=O)O
Give the value in h but do not write h after it.

// known answers, use as guide
compound: CCCC[C@@H](NC(=O)[C@@H]1CCCN1C(=O)CNC(=O)[C@H](CCCCN)NC(=O)C(C)(C)NC(=O)[C@H](CO)NC(=O)[C@@H](CC(C)C)NC(=O)[C@H](CCCNC(=N)N)NC(=O)[C@@H]1CCCN1C(=O)[C@H](CCCNC(=N)N)NC(=O)[C@@H]1CCC(=O)N1)C(=O)N[C@H](C)C(=O)N[C@H](Cc1ccccc1)C(=O)O [Example 4, pE-R-P-R-(D-Leu)-S-Aib-K-G-P-nle-a-f-OH] ([pGlu]RPR[dL]S[Aib]KGP[dNle][dA][dF]-OH)
measured_quantity: half-life at 5000 ng/mL
display_unit: h
obs_value: 6.9

compound: CCCC[C@H](NC(=O)[C@@H]1CCCN1C(=O)CNC(=O)[C@H](CCCCN)NC(=O)[C@H](Cc1c[nH]cn1)NC(=O)[C@@H](C)NC(=O)[C@H](CC(C)C)NC(=O)[C@H](CCCNC(=N)N)NC(=O)[C@@H]1CCCN1C(=O)[C@H](CCCNC(=N)N)NC(=O)[C@@H]1CCC(=O)N1)C(=O)N[C@H](C)C(=O)N[C@H](Cc1ccccc1)C(=O)O
measured_quantity: half-life at 5000 ng/mL
display_unit: h
obs_value: 2.02

# input for lookup
// query Assign half-life at 5000 ng/mL to the following record: CCCC[C@@H](NC(=O)[C@@H]1CCCN1C(=O)CNC(=O)[C@H](CCCCN)NC(=O)[C@H](Cc1ccccc1)NC(=O)[C@@H](C)NC(=O)[C@H](CC(C)C)NC(=O)[C@H](CCCNC(=N)N)NC(=O)[C@@H]1CCCN1C(=O)[C@H](CCCNC(=N)N)NC(=O)[C@@H]1CCC(=O)N1)C(=O)N[C@H](C)C(=O)N[C@H](Cc1ccccc1)C(=O)O [Example 17, pE-R-P-R-L-a-F-K-G-P-nle-a-f-OH] ([pGlu]RPRL[dA]FKGP[dNle][dA][dF]-OH)
// result 6.08

* * *

Catalogue of compounds with associated half-life
Assay: Surrogate Activity-Based Plasma Stability Assay
Format: in vitro ADME
Conditions: rat, Surrogate activity-based Plasma stability t½
Where a SMILES comes first, the peptide text is derived from it. [ ]: non-standard residue; d: D form. pGlu = O=C1CC[C@@H](C(=O)O)N1; dNle = CCCC[C@@H](N)C(=O)O; dNva = CCC[C@@H](N)C(=O)O
Entry rule: numbers only, all in h.

compound: CCCC[C@@H](NC(=O)[C@@H]1CCCN1C(=O)CNC(=O)[C@H](CCCCN)NC(=O)[C@H](Cc1c[nH]cn1)NC(=O)[C@@H](C)NC(=O)[C@H](CC(C)C)NC(=O)[C@H](CCCNC(=N)N)NC(=O)[C@@H]1CCCN1C(=O)[C@H](CCCNC(=N)N)NC(=O)[C@@H]1CCC(=O)N1)C(=O)N[C@H](CCC)C(=O)N[C@H](Cc1ccccc1)C(=O)O [Example 54, pE-R-P-R-L-a-H-K-G-P-nle-nva-f-OH] ([pGlu]RPRL[dA]HKGP[dNle][dNva][dF]-OH)
half-life [h]: 15

compound: CCCC[C@@H](NC(=O)[C@@H]1CCCN1C(=O)CNC(=O)[C@H](CCCCN)NC(=O)[C@H](Cc1c[nH]cn1)NC(=O)[C@@H](C)NC(=O)[C@H](CC(C)C)NC(=O)[C@H](CCCNC(=N)N)NC(=O)[C@@H]1CCCN1C(=O)[C@H](CCCNC(=N)N)NC(=O)[C@@H]1CCC(=O)N1)C(=O)N[C@H](C)C(=O)N[C@H](Cc1ccccc1)C(=O)O [Example 29, pE-R-P-R-L-a-H-K-G-P-nle-a-f-OH]
half-life [h]: 9.42

compound: CCCC[C@@H](NC(=O)[C@@H]1CCCN1C(=O)CNC(=O)[C@H](CCCCN)NC(=O)[C@@H](Cc1ccccc1)NC(=O)[C@H](CO)NC(=O)[C@H](CC(C)C)NC(=O)[C@H](CCCNC(=N)N)NC(=O)[C@@H]1CCCN1C(=O)[C@H](CCCNC(=N)N)NC(=O)[C@@H]1CCC(=O)N1)C(=O)N[C@H](C)C(=O)N[C@H](Cc1ccccc1)C(=O)O [Example 55, pE-R-P-R-L-S-f-K-G-P-nle-a-f-OH] ([pGlu]RPRLS[dF]KGP[dNle][dA][dF]-OH)
half-life [h]: 1.68

Moving on to the next compound.
// query Complete the entry with half-life for CCCC[C@@H](NC(=O)[C@@H]1CCCN1C(=O)CNC(=O)[C@H](CCCCN)NC(=O)[C@@H](Cc1ccccc1)NC(=O)[C@@H](C)NC(=O)[C@H](CC(C)C)NC(=O)[C@H](CCCNC(=N)N)NC(=O)[C@@H]1CCCN1C(=O)[C@H](CCCNC(=N)N)NC(=O)[C@@H]1CCC(=O)N1)C(=O)N[C@H](C)C(=O)N[C@H](Cc1ccccc1)C(=O)O [Example 46, pE-R-P-R-L-a-f-K-G-P-nle-a-f-OH] ([pGlu]RPRL[dA][dF]KGP[dNle][dA][dF]-OH)
// result 8.87
